test system: 435261-313-R-J1-PDC tumor spheroid viability; assay: Anticancer human tumor 435261-313-R-J1-PDC patient-derived colon adenocarcinoma cell line growth inhibition [PI3K]; conditions: second compound 1 µM; first compound 0.0316 µM; spheroids with HUVEC and MSC; active = viability on the fitted dose curve at most 10% of control; inactive = the rest
Lab note: assign the record to one of 1.0 = active, 0.0 = inactive

CC1(C)CCC(Nc2ncc(C(F)(F)F)c(-c3c[nH]c4c(P(C)(C)=O)c(C#N)ccc34)n2)CN1 (configuration not stated) + COc1c(OCCCN2CCOCC2)ccc2c3n(c(=NC(=O)c4cnc(N)nc4)nc12)CCN3
1.0

Challenge: Answer briefly: the call reported for CCN1CCN(Cc2ccc(Nc3ncc(F)c(-c4cc(F)c5nc(C)n(C(C)C)c5c4)n3)nc2)CC1 + CC(Nc1ccc2c(c1)OCCn1cc(N3C(=O)OCC3C(F)F)nc1-2)C(N)=O in this assay.
Response given: 0.0

Challenge: Hey, what did the test say about CCCS(=O)(=O)Nc1ccc(F)c(C(=O)c2c[nH]c3ncc(-c4ccc(Cl)cc4)cc23)c1F + Cc1nc(NC(=O)N2CCCC2C(N)=O)sc1-c1ccnc(C(C)(C)C(F)(F)F)c1 ?
Response given: 0.0

Challenge: Could you kindly confirm the outcome this assay logged for Cn1ncnc1[C@H]1c2n[nH]c(=O)c3cc(F)cc(c23)N[C@@H]1c1ccc(F)cc1 + Cc1nc(NC(=O)N2CCCC2C(N)=O)sc1-c1ccnc(C(C)(C)C(F)(F)F)c1 ?
Response given: 0.0

Challenge: Identify the outcome logged in this assay for the molecule shown: CNC(=O)c1ccc(N2C(=S)N(c3ccc(C#N)c(C(F)(F)F)c3)C(=O)C2(C)C)cc1F + CC(Nc1ccc2c(c1)OCCn1cc(N3C(=O)OCC3C(F)F)nc1-2)C(N)=O
Response given: 0.0

Challenge: Identify the outcome logged in this assay for the molecule shown: CC1(C)CCC(Nc2ncc(C(F)(F)F)c(-c3c[nH]c4c(P(C)(C)=O)c(C#N)ccc34)n2)CN1 (configuration not stated) + CC(Nc1ccc2c(c1)OCCn1cc(N3C(=O)OCC3C(F)F)nc1-2)C(N)=O
Response given: 0.0

Challenge: Check the results log: what was the call for CC(=O)c1c(C)c2cnc(Nc3ccc(N4CCNCC4)cn3)nc2n(C2CCCC2)c1=O + CC(Nc1ccc2c(c1)OCCn1cc(N3C(=O)OCC3C(F)F)nc1-2)C(N)=O ?
Response given: 0.0

Challenge: # fetch the recorded call for CC(C)n1nc(-c2ccc3oc(N)nc3c2)c2c(N)ncnc21 + COc1c(OCCCN2CCOCC2)ccc2c3n(c(=NC(=O)c4cnc(N)nc4)nc12)CCN3 here
Response given: 1.0

Challenge: How was CCN1CCN(Cc2ccc(Nc3ncc(F)c(-c4cc(F)c5nc(C)n(C(C)C)c5c4)n3)nc2)CC1 + CC(Nc1ncnc2nc[nH]c12)c1cc2cccc(Cl)c2c(=O)n1-c1ccccc1 classified in this test?
Response given: 0.0

Challenge: What call does the record list for CCCS(=O)(=O)Nc1ccc(F)c(C(=O)c2c[nH]c3ncc(-c4ccc(Cl)cc4)cc23)c1F + COc1c(OCCCN2CCOCC2)ccc2c3n(c(=NC(=O)c4cnc(N)nc4)nc12)CCN3 ?
Response given: 1.0

Challenge: Hi, do you know how Cn1nccc1Nc1nccc(-c2ccn(C(CO)c3ccc(Cl)c(F)c3)c(=O)c2)n1 (configuration not stated) + COc1c(OCCCN2CCOCC2)ccc2c3n(c(=NC(=O)c4cnc(N)nc4)nc12)CCN3 came out in this test?
Response given: 1.0

Challenge: Dear colleague, could you share the recorded outcome for Cn1nccc1Nc1nccc(-c2ccn(C(CO)c3ccc(Cl)c(F)c3)c(=O)c2)n1 (configuration not stated) + CC(Nc1ccc2c(c1)OCCn1cc(N3C(=O)OCC3C(F)F)nc1-2)C(N)=O when you have a moment?
Response given: 0.0

Challenge: Outcome logged for C=CC(=O)N1CCN(c2nc(=O)n(-c3c(C)ccnc3C(C)C)c3nc(-c4c(O)cccc4F)c(F)cc23)C(C)C1 (configuration not stated) + COc1c(OCCCN2CCOCC2)ccc2c3n(c(=NC(=O)c4cnc(N)nc4)nc12)CCN3 in this assay:
Response given: 1.0

Challenge: Answer briefly: the call reported for CC(Cn1ccc(-c2ccc(C#N)c(Cl)c2)n1)NC(=O)c1cc(C(C)O)[nH]n1 (configuration not stated) + CC(Nc1ccc2c(c1)OCCn1cc(N3C(=O)OCC3C(F)F)nc1-2)C(N)=O in this assay.
Response given: 0.0

Challenge: Recorded call for C#Cc1c(F)ccc2cc(O)cc(-c3ncc4c(N5CC6CCC(C5)N6)nc(OCC56CCCN5CC(F)C6)nc4c3F)c12 (configuration not stated) + CC(Nc1ncnc2nc[nH]c12)c1cc2cccc(Cl)c2c(=O)n1-c1ccccc1 ?
Response given: 0.0

Challenge: Each molecule tested received a call. Report the one for C[C@@H](NC(=O)c1ncnc(N)c1Cl)c1ncc(C(=O)Nc2cc(C(F)(F)F)c(Cl)cn2)s1 + CC(Nc1ncnc2nc[nH]c12)c1cc2cccc(Cl)c2c(=O)n1-c1ccccc1 .
Response given: 0.0

Challenge: Per the assay record, what outcome was assigned to CC(=O)c1c(C)c2cnc(Nc3ccc(N4CCNCC4)cn3)nc2n(C2CCCC2)c1=O + CC(Nc1ncnc2nc[nH]c12)c1cc2cccc(Cl)c2c(=O)n1-c1ccccc1 ?
Response given: 0.0

----------
test system: 435261-313-R-J1-PDC tumor spheroid viability; assay: Anticancer human tumor 435261-313-R-J1-PDC cell line growth inhibition [PI3K]; details: second compound 0.0316 µM; first compound 1 µM; hits give low values; spheroids with HUVEC and MSC;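 note: spheroids exposed to compounds for 7 days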
Recorded viability, T/C for the following compounds
The reply should contain only the number, in %.

Worked cases, answers included:
C#Cc1c(F)ccc2cc(O)cc(-c3ncc4c(N5CC6CCC(C5)N6)nc(OCC56CCCN5CC(F)C6)nc4c3F)c12 (stereo not drawn) + Cc1nc(NC(=O)N2CCCC2C(N)=O)sc1-c1ccnc(C(C)(C)C(F)(F)F)c1
49
Cn1ncc(Cl)c1-c1cc(C(=O)NC(CN)Cc2cccc(F)c2)sc1Cl (stereo not drawn) + Cc1nc(NC(=O)N2CCCC2C(N)=O)sc1-c1ccnc(C(C)(C)C(F)(F)F)c1
31.2

Consider the record given below.
Challenge: # assay system 435261-313-R-J1-PDC tumor spheroid viability: give viability, T/C of C[C@@H](NC(=O)c1ncnc(N)c1Cl)c1ncc(C(=O)Nc2cc(C(F)(F)F)c(Cl)cn2)s1 + CC(Nc1ccc2c(c1)OCCn1cc(N3C(=O)OCC3C(F)F)nc1-2)C(N)=O
Response given: 158

----------
test system: 435261-313-R-J1-PDC tumor spheroid viability; experiment: Anticancer human tumor 435261-313-R-J1-PDC cell line growth inhibition [PI3K]; settings: second compound 0.01 µM; first compound 10 µM; spheroids with HUVEC and MSC; active = viability on the fitted dose curve at most 10% of control; inactive = the rest;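 note: spheroids exposed to compounds for 7 days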
API: response.call in y (active), n (inactive)

Before answering, review these 4 worked examples.
CCCS(=O)(=O)Nc1ccc(F)c(C(=O)c2c[nH]c3ncc(-c4ccc(Cl)cc4)cc23)c1F + COc1c(OCCCN2CCOCC2)ccc2c3n(c(=NC(=O)c4cnc(N)nc4)nc12)CCN3
y
CNC(=O)c1ccc(N2C(=S)N(c3ccc(C#N)c(C(F)(F)F)c3)C(=O)C2(C)C)cc1F + COc1c(OCCCN2CCOCC2)ccc2c3n(c(=NC(=O)c4cnc(N)nc4)nc12)CCN3
n
Cn1nccc1Nc1nccc(-c2ccn(C(CO)c3ccc(Cl)c(F)c3)c(=O)c2)n1 (stereo not given) + COc1c(OCCCN2CCOCC2)ccc2c3n(c(=NC(=O)c4cnc(N)nc4)nc12)CCN3
n
Cn1nccc1Nc1nccc(-c2ccn(C(CO)c3ccc(Cl)c(F)c3)c(=O)c2)n1 (stereo not given) + CC(Nc1ccc2c(c1)OCCn1cc(N3C(=O)OCC3C(F)F)nc1-2)C(N)=O
n

Here is another compound to look at.
Challenge: Please let me know the test result on file for CC(Cn1ccc(-c2ccc(C#N)c(Cl)c2)n1)NC(=O)c1cc(C(C)O)[nH]n1 (stereo not given) + CC(Nc1ccc2c(c1)OCCn1cc(N3C(=O)OCC3C(F)F)nc1-2)C(N)=O .
Response given: n

----------
Property: viability, T/C; scope: individual compounds
tested on: 435261-313-R-J1-PDC tumor spheroid viability; assay: Anticancer human tumor 435261-313-R-J1-PDC cell line growth inhibition [PI3K]; conditions: second compound 0.00316 µM; first compound 0.1 µM; hits give low values; spheroids with HUVEC and MSC;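 note: spheroids exposed to compounds for 7 days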
The figure you give is taken to be in %; do not add the unit.

CC(C)NCC(C(=O)N1CCN(c2ncnc3c2C(C)CC3O)CC1)c1ccc(Cl)cc1 (stereo not drawn) + CC(Nc1ccc2c(c1)OCCn1cc(N3C(=O)OCC3C(F)F)nc1-2)C(N)=O
77.9
CCCS(=O)(=O)Nc1ccc(F)c(C(=O)c2c[nH]c3ncc(-c4ccc(Cl)cc4)cc23)c1F + COc1c(OCCCN2CCOCC2)ccc2c3n(c(=NC(=O)c4cnc(N)nc4)nc12)CCN3
77.1
CC1(C)CCC(Nc2ncc(C(F)(F)F)c(-c3c[nH]c4c(P(C)(C)=O)c(C#N)ccc34)n2)CN1 (stereo not drawn) + COc1c(OCCCN2CCOCC2)ccc2c3n(c(=NC(=O)c4cnc(N)nc4)nc12)CCN3
58.8
CC1(C)CCC(CN2CCN(c3ccc(C(=O)NS(=O)(=O)c4ccc(NCC5CCOCC5)c([N+](=O)[O-])c4)c(Oc4cnc5[nH]ccc5c4)c3)CC2)=C(c2ccc(Cl)cc2)C1 + COc1c(OCCCN2CCOCC2)ccc2c3n(c(=NC(=O)c4cnc(N)nc4)nc12)CCN3
65
Cn1nccc1Nc1nccc(-c2ccn(C(CO)c3ccc(Cl)c(F)c3)c(=O)c2)n1 (stereo not drawn) + CC(Nc1ccc2c(c1)OCCn1cc(N3C(=O)OCC3C(F)F)nc1-2)C(N)=O
73.3
CCN1CCN(Cc2ccc(Nc3ncc(F)c(-c4cc(F)c5nc(C)n(C(C)C)c5c4)n3)nc2)CC1 + CC(Nc1ccc2c(c1)OCCn1cc(N3C(=O)OCC3C(F)F)nc1-2)C(N)=O
66.9

Challenge: State its viability, T/C for this compound: CC(C)NCC(C(=O)N1CCN(c2ncnc3c2C(C)CC3O)CC1)c1ccc(Cl)cc1 (stereo not drawn) + COc1c(OCCCN2CCOCC2)ccc2c3n(c(=NC(=O)c4cnc(N)nc4)nc12)CCN3
Response given: 57.4

Challenge: State its viability, T/C for this compound: C[C@@H](NC(=O)c1ncnc(N)c1Cl)c1ncc(C(=O)Nc2cc(C(F)(F)F)c(Cl)cn2)s1 + COc1c(OCCCN2CCOCC2)ccc2c3n(c(=NC(=O)c4cnc(N)nc4)nc12)CCN3
Response given: 138
